Values from patent US20070134261A1

# Tested on: A549 human epithelial cells
# METHOD: Induction of chemokines (IL-8, MCP-1) in A549 cells (ELISA)
# Format: cell-based
# TEST_CONTEXT: peptide 10 ug/ml, 24 hr
# Protocol: The murine macrophage cell line RAW 264.7, THP-1 cells (human monocytes), a human epithelial cell line (A549), human bronchial epithelial cells (16HBEo14), and whole human blood were used. HBE cells were grown in MEM with Earle's. THP-1 cells were grown and maintained in RPMI 1640 medium. […] After incubation of the cells with peptide, the release of chemokines into the culture supernatant was determined by ELISA (R&D Systems, Minneapolis, Minn.).
No end group written: not given here.
// reported IL-8 for each item listed
OUTCOME_MEASURE: IL-8 (ng/mL)

KWKRGAHRFMKFLSTIFHTALKPISS [SEQ ID NO: 49]: 0.301
KWKSYAHTIMSPVRLVFHTALKPISS [SEQ ID NO: 54]: 0.133
KWKSLVMMFKKPARRIFHTALKPISS [SEQ ID NO: 51]: 0.255
KWKKWAHSPRKVLTRIFHTALKPISS [SEQ ID NO: 50]: 0.141
KWKHALMKAHMLWHMIFHTALKPISS [SEQ ID NO: 52]: 0.207

---

# Tested on: A549 epithelial cells
# METHOD: Human Operon arrays (PRHU04-S1) of A549 cells treated with peptide alone (Tables 31-37, 53)
# TEST_CONTEXT: peptide 50 μg/ml, 4 h, A549 cells
No end group written: not given here.
OUTCOME_MEASURE: ID#:ctrl intensity ratio, X65962 cytochrome P-450

RPRYPWWPWWPYRPRK [SEQ ID NO: 19]: 3.8
RRAWWKAWWARRK [ID 20]: 25.3
RPAWKYWWPWPWPRRK [SEQ ID NO: 22]: 5.1
RAPYWPWAWARPRK [ID 21]: 5.7
RAAFKWAWAWWRRK [ID 23]: 19.8
RRRWKWAWPRRK [ID 24]: 12.0

---

# Test system: HBE cells
# METHOD: WST-1 assay (cell viability)
# Type: cell-based, human
# Method: The potential toxicity of the peptides was measured in two ways. First, the Cytotoxicity Detection Kit (Roche) (Lactate dehydrogenase-LDH) Assay was used. It is a colorimetric assay for the quantification of cell death and cell lysis, based on the measurement of LDH activity released from the cytosol of damaged cells into the supernatant. […] The cells are incubated with the reagent and the plate is then measured with an ELISA plate reader, OD490 nm.
No end group written: not given here.
OUTCOME_MEASURE: OD490 nm (WST-1 cell viability) (OD490 nm)

KRTAIKKVSRRGMSVKARR [SEQ ID NO: 37]: 1.67
KMKSFAKMLMLALKKVLKVLTTALTLKAGLPS [SEQ ID NO: 43]: 0.46
RREAIRRVAMRGRDMKRMRR [SEQ ID NO: 31]: 1.84
RLARIVVIRVAR-NH2 [SEQ ID NO: 3, reference compound]: 1.35
SELPGLKHPCVPGS [SEQ ID NO: 13]: 1.23
RPAWKYWWPWPWPRRK [SEQ ID NO: 22]: 1.33
RKMVKVDVRGIMIRKDRR [SEQ ID NO: 29]: 1.75
RRAWWKAWWARRK [SEQ ID NO: 20]: 1.61
RAAFKWAWAWWRRK [SEQ ID NO: 23]: 1.14
RRRWKWAWPRRK [SEQ ID NO: 24]: 1.27
RAPYWPWAWARPRK [SEQ ID NO: 21]: 1.28
KWKSYAHTIMSPVRLIFHTALKPISS [SEQ ID NO: 48]: 0.93
KCKLFKKMLMLALKKVLTTGLPALKLTK [SEQ ID NO: 40]: 0.46
TTLGPVKRDSIPGE [SEQ ID NO: 14]: 1.25
KWKSFLRTFKSPVRTVFHTALKPISS [SEQ ID NO: 53]: 1.51
KNKAFAKMLMKALKKVTTAAKPLTG [SEQ ID NO: 44]: 1.49
KTKKFAKMLMMALKKVVSTAKPLAILS [SEQ ID NO: 42]: 0.39
KQKLFAKMLMSALKKKTLVTTPLAGK [SEQ ID NO: 45]: 1.54
LSRIAPAIPWAKL [SEQ ID NO: 10]: 1.22
NLPDLKKPRVPATS [SEQ ID NO: 17]: 1.60
RRDCRRVMVRGIDIKAK [SEQ ID NO: 36]: 1.58
ELPLKRGRVPVE [SEQ ID NO: 16]: 1.39
KSRIVPAIPVSLL [SEQ ID NO: 7]: 1.78
KESIKVIIRGMMVRMKK [SEQ ID NO: 35]: 1.00
KKQMMKRVDVRGISVKRKR [SEQ ID NO: 34]: 0.96
RPRYPWWPWWPYRPRK [SEQ ID NO: 19]: 1.42
RRARIVPAIPVARR [SEQ ID NO: 9]: 1.69
KKDAIKKVDIRGMDMRRAR [SEQ ID NO: 28]: 1.69

---

# System: human bronchial epithelial cells (HBE)
# METHOD: LDH release assay (Cytotoxicity Detection Kit)
# Assay type: cell-based
# TEST_CONTEXT: 100 μg/ml, 24 hours; no peptide control 1.0 ± 0.05
No end group written: not given here.
OUTCOME_MEASURE: LDH Release (OD490 nm)

RPAWKYWWPWPWPRRK [SEQ ID NO: 22]: 1.29
KSRIVPAIPVSLL [SEQ ID NO: 7]: 1.01
KRTAIKKVSRRGMSVKARR [SEQ ID NO: 37]: 0.96
RRRWKWAWPRRK [SEQ ID NO: 24]: 1.05

---

# Type: cell-based
# TEST_CONTEXT: Citobacter rhodensis, overnight, 96-well plate
No end group written: not given here.
// reported MIC, C. rhod. for each item listed
OUTCOME_MEASURE: MIC, C. rhod. (µg/mL)

KWKSYAHTIMSPVRLVFHTALKPISS [SEQ ID NO: 54]: 16
KCKLFKKMLMLALKKVLTTGLPALKLTK [SEQ ID NO: 40]: 4
KWKSFLRTFKSPVRTVFHTALKPISS [SEQ ID NO: 53]: 16
KWKSYAHTIMSPVRLIFHTALKPISS [SEQ ID NO: 48]: 1
KWKSLVMMFKKPARRIFHTALKPISS [SEQ ID NO: 51]: 4

---

// reported LDH Release (OD490 nm) for each item listed
# System: human bronchial epithelial cells (HBE)
# METHOD: LDH release assay (Cytotoxicity Detection Kit)
# Assay type: cell-based
# TEST_CONTEXT: 100 μg/ml, 24 hours; no peptide control 1.0 ± 0.05
# Method: The potential toxicity of the peptides was measured in two ways. First, the Cytotoxicity Detection Kit (Roche) (Lactate dehydrogenase-LDH) Assay was used. It is a colorimetric assay for the quantification of cell death and cell lysis, based on the measurement of LDH activity released from the cytosol of damaged cells into the supernatant. […] The cells are incubated with the reagent and the plate is then measured with an ELISA plate reader, OD490 nm.
No end group written: not given here.
OUTCOME_MEASURE: LDH Release (OD490 nm)

KCKLFKKMLMLALKKVLTTGLPALKLTK [SEQ ID NO: 40]: 2.8
KMKSFAKMLMLALKKVLKVLTTALTLKAGLPS [SEQ ID NO: 43]: 4.3
ELPLKRGRVPVE [SEQ ID NO: 16]: 0.91
KWKSYAHTIMSPVRLIFHTALKPISS [SEQ ID NO: 48]: 0.95
RPRYPWWPWWPYRPRK [SEQ ID NO: 19]: 1.08
KKDAIKKVDIRGMDMRRAR [SEQ ID NO: 28]: 0.96
RAAFKWAWAWWRRK [SEQ ID NO: 23]: 1.26
RRDCRRVMVRGIDIKAK [SEQ ID NO: 36]: 0.85
RREAIRRVAMRGRDMKRMRR [SEQ ID NO: 31]: 0.98
RRAWWKAWWARRK [SEQ ID NO: 20]: 1.05
TTLGPVKRDSIPGE [SEQ ID NO: 14]: 0.99
NLPDLKKPRVPATS [SEQ ID NO: 17]: 0.94

---

# Tested on: human bronchial epithelial cells (HBE)
# METHOD: LDH release assay (Cytotoxicity Detection Kit)
# Format: cell-based
# TEST_CONTEXT: 100 μg/ml, 24 hours; no peptide control 1.0 ± 0.05
# Description: The potential toxicity of the peptides was measured in two ways. First, the Cytotoxicity Detection Kit (Roche) (Lactate dehydrogenase-LDH) Assay was used. It is a colorimetric assay for the quantification of cell death and cell lysis, based on the measurement of LDH activity released from the cytosol of damaged cells into the supernatant. […] The cells are incubated with the reagent and the plate is then measured with an ELISA plate reader, OD490 nm.
No end group written: not given here.
LDH Release (OD490 nm) under 1 OD490 nm gets 1, anything at or over 1 OD490 nm gets 0.

SELPGLKHPCVPGS [SEQ ID NO: 13]: 1
RRARIVPAIPVARR [SEQ ID NO: 9]: 0
LSRIAPAIPWAKL [SEQ ID NO: 10]: 0
KWKSFLRTFKSPVRTVFHTALKPISS [SEQ ID NO: 53]: 0
KESIKVIIRGMMVRMKK [SEQ ID NO: 35]: 1
RLARIVVIRVAR-NH2 [SEQ ID NO: 3, reference compound]: 0
KTKKFAKMLMMALKKVVSTAKPLAILS [SEQ ID NO: 42]: 0
KNKAFAKMLMKALKKVTTAAKPLTG [SEQ ID NO: 44]: 1
RAPYWPWAWARPRK [SEQ ID NO: 21]: 0
